Measured values drawn from PubChem BioAssay (NCI) for this set.

Reported TGI values for a set of compounds
# Tested on: OVCAR-5 ovarian
# assay: NCI tumour cell line growth inhibition, 48 h

// known answers, use as guide
compound	target_entity	reported_endpoint	result
Cc1ccc2c3c4c(ccc13)C(C)(C)OC4=C(C(C)C)C2=O	OVCAR-5 ovarian	TGI	> 100 µM
N#CCCN1C/C(=C/c2ccccc2)C(=O)/C(=C/c2ccccc2)C1	OVCAR-5 ovarian	TGI	6.6 µM
OC(c1ccc(F)cc1)(c1ccc(F)cc1)C1CC1	OVCAR-5 ovarian	TGI	> 100 µM
COc1ccc2nc(NC(=O)COc3cc(/C=C\c4cc(OC)c(OC)c(OC)c4)ccc3OC)sc2c1	OVCAR-5 ovarian	TGI	> 100 µM
N#CC1Sc2ccccc2-n2cccc21 (stereo unspecified)	OVCAR-5 ovarian	TGI	> 100 µM
C=C1C2CC[C@@](C)(O)C2[C@H]2OC(=O)C(=C)[C@@H]2C[C@H]1O (stereo partly specified)	OVCAR-5 ovarian	TGI	> 100 µM
CC1(C)CSCC(C)(C)C(=N/N)/C1=N\N	OVCAR-5 ovarian	TGI	> 100 µM
CC(O)C(C(=O)O)N(CC1(O)OCC(O)C(O)C1O)N=O (stereo unspecified)	OVCAR-5 ovarian	TGI	> 100 µM
NC(=O)[C@@H](CCC(F)(F)F)N(Cc1ccc(-c2ncon2)cc1F)S(=O)(=O)c1ccc(Cl)cc1	OVCAR-5 ovarian	TGI	> 100 µM
Cc1nnc2sc(Cc3cnc(N)s3)nn12	OVCAR-5 ovarian	TGI	> 100 µM

# ---- query compound ----
For `CCOC(=O)c1c(O)cc(=O)[nH]c1N1CCOCC1` , what is its reported TGI?
> 100 µM
